- Tested on: MS2 coat protein
- MEASUREMENT DESCRIPTION: apparent KD of MS2 coat protein; designed switch direction (-1 OFF switch, 1 ON switch): -1; higher = weaker reporter binding
- SETTINGS: input ligand: none
In this section, each of the sequences is paired with its reported apparent KD of MS2 coat protein.
Hi! Could you send only the number? It should be in nM, unit omitted.

Response field apparent KD of MS2 coat protein (MS2 coat protein) for item CUUGACUGAGGAUAUACGAGAUCGAAAGAUCGGCGAUCCCUACAUGAGGAUCACCCAUGUAGAAGGCAGUCAAG [Mod 14 - Jieux - Exclusion 2] (Eterna round: R97, puzzle: Exclusion 2) : 17

Response field apparent KD of MS2 coat protein (MS2 coat protein) for item AUAAAUUUAGAGGAUAUCUUAUAUGGGCGACCGAGAGAAGGCUGGACAUGAGGAUCACCCAUGUGCUUCGGUGA [Eternabot (L1) Solution 96] (Eterna round: R97, puzzle: Exclusion 6) : 75

Response field apparent KD of MS2 coat protein (MS2 coat protein) for item CAUAUGGGAGGAUAUGCAUAGAUAAAGAAACAUGUUCAACCACAUGAGGAUCACCCAUGUAGAAGGCCCAUAUG [Mat - Same state - Mayanna Mod - D102] (Eterna round: R96, puzzle: Exclusion 2) : 32.8

Response field apparent KD of MS2 coat protein (MS2 coat protein) for item AGCGUGGAGACAGGAUAUGAGAAUAGAUAGAACUCAGAAGGGUCACAUGAGGAUCACCCAUGUAAAGUCUUGAGGAUGAGUGGU [Prohibition 5 - Jieux - Exclusion NG 1] (Eterna round: R96, puzzle: Exclusion NG 1) : 51.1

Response field apparent KD of MS2 coat protein (MS2 coat protein) for item CAAGAACAGGUCAGGAUAUGGCAAAUAAAUAACAACCAGAAGGGACUUGAGGAUCACCCAAGUUUAGAAGGGUA [Tebeorus] (Eterna round: R97, puzzle: Brourd's mod of Exclusion 4) : 39.4

Response field apparent KD of MS2 coat protein (MS2 coat protein) for item UGUUGUUACGCAGGAUAUGUAUGAGGAUCACCCAUAAGAGUUGAUGUACCAUGAGGAUCACCCAUGUAGAAGGGCGGGUUAACA [pwkr exNG2 2xF5 1xFMN.9] (Eterna round: R96, puzzle: Exclusion NG 2) : 234

Response field apparent KD of MS2 coat protein (MS2 coat protein) for item UGUUGUCGCGUAGGAUAUGAGGAUCACCCAUAUAGAGGAUAUGAAAAGAAGGCUCUGAGGAUCACCCAGAAGGACGGGACAACU [pwkr exNG2 2xF5 2xFMN.24] (Eterna round: R96, puzzle: Exclusion NG 2) : 207

Response field apparent KD of MS2 coat protein (MS2 coat protein) for item GUGAGUAGUCAGGAUAUGCUGUACAAAAGUACAGCAGAAGGGAUUACAUGAGGAUCACCCAUGUGUACUUCAUG [Omei Ex6 B10] (Eterna round: R97, puzzle: Exclusion 6) : 322

----------
- Test system: K4 kissing-loop RNA reporter;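 also: bound reporter read as fluorescence of individual clusters on recovered sequencing chips by microscopy, with normalized cluster intensities fitted with a binding model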
- MEASUREMENT DESCRIPTION: apparent KD of K4 kissing-loop reporter; higher = weaker reporter binding
- SETTINGS: Eterna round: R107; input ligand: theophylline 20 uM
Class (required): determined from apparent KD of K4 kissing-loop reporter; valid ranges are 0 = under 100 nM, 1 = from 100 nM up to 200 nM, 2 = 200 nM and over

Worked cases, answers included:
{"CHAIN": "CGCAAGCAGCCAGUGAUGUUGGCCGCCUUGCGAGGACCGGUACGGCCGCCACUCGAAGGCGGCUACUGGUAAUCCGUCUAACGGA [Lareus]", "LABEL CLASS": 0}
{"CHAIN": "AUUCUAUUGUGAAGGAGCGCGACUAGUAGUGAUGUUACUAUAUGACUUUAGUCUUAAUUCUCGCAGGUAGGUCGCACAAUAUAUA [JR_Nu_SSArginiB_Sub028]", "LABEL CLASS": 2}
{"CHAIN": "UGACUGGACUGAAGGAGCGCUAAACUCCUAGUGAUGUUAGGAUAACGAGACAAAGUCUCGAAGCAGGUAGGUCGCAGUCUAGUCU", "LABEL CLASS": 1}
{"CHAIN": "GCGCGUCAUGUCAGCGGUGACACUGUCGAUACCAGCGCCGCAAGGCGCCCUUGGCAGCGACGCGCUGGAGUGAUGUUCCAGCGUG [#2 Exclusion - Theophylline A Attempt #14 (HarryS)]", "LABEL CLASS": 1}
{"CHAIN": "AGUACAAUGGCGGCCGCCACUCAAUGGCAGAUCAAAGAUCUGUAUCACUCAGUGAUGUUGAGUGAGAGGACCGGGCCUUUGUACA [Omei KL Tryp B SS B v9]", "LABEL CLASS": 2}
{"CHAIN": "GCCGUACGCAUGGAUACCAGCUUGUCCGAGUGAUGUUCGGGUCUGAAUGCCGGUAAUAAGAGCCCUUGGCAGCCAUGCGUACGGC", "LABEL CLASS": 1}
{"CHAIN": "ACGGAUUCGAAUACCGAAUGAAAUAGGGAUACCAGCACGUGAACGUGCCCUUGGCAGCCCAGCCCAGUGAUGUUGGGCCCAUGGC [Biso]", "LABEL CLASS": 2}
{"CHAIN": "AGCGAGAUACUUGUCUAGUAUACUACAGAUACCAGACAAGUACUAGUCCCUUGGCAGCUGUAGAUCGAGUGAUGUUCGAGUCGCU [Theo A SS t1]", "LABEL CLASS": 2}
{"CHAIN": "AUAGAAAAGUGGCACCCUCACUAAAACAGUCGAGGACCGGUACGGCCGCCACUCGCGCGCUUUAGUGAUGUUAAAGCUAUGCAAA", "LABEL CLASS": 2}
{"CHAIN": "AAUUCCUGUUAUGAUACCAGAAAUCACAGCAACCUGCCUACCUAGUGAUGUUAGGAGAAUUUCCCUUGGCAGCAUCGACUGAAGG [theeternabot_sameState_KL_Theo_B_38]", "LABEL CLASS": 1}

Hi, small favor: classify GGCACUUUUGCUUGGAACCGUCAAGCUCUAUAGGAUAUGCCGAAAGGCAGAAGGAUGGACCUACAGAGUGAUGUUCUGCGUGCCU by its apparent KD of K4 kissing-loop reporter when you get a moment.
1

Hi, small favor: classify ACUAGUUAAUCGGCCGCCACUUCUAGUGAUGUUAGAAUUAUCCAGAUUAUCAGCGUAGCACAUUGAAGGACCGGGAUAAGGUGGU [theeternabot_exclusion_KL_Trp_B_2] by its apparent KD of K4 kissing-loop reporter when you get a moment.
2

Hi, small favor: classify GCCGUAGAUUGAAGGAGCGUGGAACUAUGGCUUGAACAGUGAUGUUGUUUAUCUAGGUAGCCACAGGUAGGUCGCAAUCUACGGC by its apparent KD of K4 kissing-loop reporter when you get a moment.
1

Hi, small favor: classify UCCUAGGCUCGAAAGAGCCUAGGAUUUACUCAGGAUAUCCGGAAACGGAGAAGGGAGUAACUAGUGAUGUUAGGGAUUCCCUAUU by its apparent KD of K4 kissing-loop reporter when you get a moment.
1

Hi, small favor: classify ACGUGCACCAGUGAUGUUGGAAAAUAUGAAGGAGCGUGCGAAAGCACAGGUAGGUCGCAUAAUAGCACGAGCCACGAAAGUGGCA [#SwitchBubble 6 #K4Early #Sliding] by its apparent KD of K4 kissing-loop reporter when you get a moment.
1

----------
- Test system: MS2 coat protein
- MEASUREMENT DESCRIPTION: apparent KD of MS2 coat protein; designed switch direction (-1 OFF switch, 1 ON switch): -1; higher = weaker reporter binding
- SETTINGS: Eterna round: R95; input ligand: FMN 200 uM
RECORDED ENDPOINT: apparent KD of MS2 coat protein (nM)
Hi! Could you send only the number? It should be in nM, unit omitted.

Example sequences with recorded apparent KD of MS2 coat protein:
{"CHAIN": "GCGUAUGAGCAGGAUAUCCGACGGGAAUCCAAAGGAGAAGGGCUCACAUGAGGAUCACCCAUGUGGUCCAAAAC [Agediat] (puzzle: Exclusion 6)", "ASSAY RESULT": 109}
{"CHAIN": "GUAGCUUCGGCUACUACAAGCUUUUUGCUCGUCUUAUUAACAUGAGGAUCACCCAUGUCAAAGAGACCUCAUGUAUU [Sensor v3 - turn-off variant 2 - 5] (puzzle: Sensor v3, turn-off variant 2)", "ASSAY RESULT": 420}
{"CHAIN": "ACGUGAUAUCUGUCGGUGGACAUGAGGAUCACCCAUGUGAGCUUUUUGCUCGUCUUGUAACCCGGUGACAGACCUUC [Encetia] (puzzle: Sensor v3, turn-off variant 1)", "ASSAY RESULT": 22.4}
{"CHAIN": "AAAAGGUGAGGAUAUGAGGCGCCGGGCCGGUUGGUGCGGAUUCAGAAGGCACAUGAGGAUCACCCAUGUAAUAA [Excls4-II] (puzzle: Exclusion 4)", "ASSAY RESULT": 52.2}
{"CHAIN": "UAAUACAUCUAUGGGAGUAACAUGAGGAUCACCCAUGUAUGUCUUGUUUUUUGUUCGUCAAAGACUUUCUGAUCAGU [JR_SV3TOV1_Sub030] (puzzle: Sensor v3, turn-off variant 1)", "ASSAY RESULT": 76.7}
{"CHAIN": "AGUAACCGUCACGAAAGUGAUGGUUACGCAAGCAAUUGUACAUGAGGAUCACCCAUGUCCUCAUUUGCUCGUCUUAU [Sensor 3 - 42] (puzzle: Sensor v3, turn-off variant 2)", "ASSAY RESULT": 313}
{"CHAIN": "AUAAUUUAAGUCAGGAUAUACCUAUGGAAACAUAGGUAGAAGGGACAUGAGGAUCACCCAUGUUUAUAUACAUA [Fiskers BMX 4 - 4] (puzzle: Brourd's mod of Exclusion 4)", "ASSAY RESULT": 29.8}
{"CHAIN": "UAAUAACAAGCAGGAUCCUACAUGAGGAUCACCCAUGUGCUCGUCUUAUAAAGUACUAUCACGAAAGUGAUAGUACA [Mat - Sensor v3 - turn-off var 1 - Eli Mod - D70] (puzzle: Sensor v3, turn-off variant 1)", "ASSAY RESULT": 272}
{"CHAIN": "AAGUACCGUCACGAUAGUGAUGGUACAACAAGUAGUGAAACAUGAGGAUCACCCAUGUCCUCUUUUGCUCGUCUUAU [Sensor 3 - 88] (puzzle: Sensor v3, turn-off variant 2)", "ASSAY RESULT": 931}
{"CHAIN": "GGAAAACAUGAGGAUCACCCAUGUAAGGAUAUGCAAAAGGAUAUAGAAGGAAAAUAAAGCAGAAGGUACAAAGG [salish99-ex1_r3_098] (puzzle: Exclusion 1)", "ASSAY RESULT": 126}

Entry GAAAAGGUAGGAUAUACGAAAAAAAAGGGUACAAAAAAAACACAUGAGGAUCACCCAUGUAGAAGGACCAAAAG [salish99_ex2_r3_063] (puzzle: Exclusion 2) ; apparent KD of MS2 coat protein = 36.8

Entry CUCUACGGAGGAUAUACAACCGGUUAUCCCUGUGGAACGCCACAUGAGGAUCACCCAUGUAGAAGGCCGAGAAA [Ceones] (puzzle: Exclusion 2) ; apparent KD of MS2 coat protein = 15.2

Entry UUUAAAACAUAGGAUAUCGAAUUAAUCAUUUAACGAGAAGGAUGAACAUGAGGAUCACCCAUGUGGUAUCAUGG [Mat - Exclusion 6 - JL Mod - D19] (puzzle: Exclusion 6) ; apparent KD of MS2 coat protein = 282
